B1: F1*; the commonest letter at each place (parent)
chain: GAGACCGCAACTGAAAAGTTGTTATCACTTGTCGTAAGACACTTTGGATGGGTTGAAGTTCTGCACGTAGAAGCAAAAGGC

- Variants of: B1
- protocol-details: fraction ligated after 30 min (ligated reads / total reads); higher = more ligase activity
- measurement-parameters: with F1*sub RNA substrate (template-directed ligation), 42 °C
Kindly return True if reported fraction ligated is no lower than 0.8; return False if it is lower.

sequence-variant | answer-label
C33A C42G | True
C33G G34A | True
T43C G50C | False

Answer whether fraction ligated of G34T T45C is greater than or equal to 0.8.
False

Hello, I need to know if G47T G55T has measured fraction ligated not below 0.8. Thanks!
False
